What follows is a collection of pIC50 values obtained with Dihydroorotate dehydrogenase (quinone), mitochondrial (Homo sapiens).
Sequence (Q02127 whole entry): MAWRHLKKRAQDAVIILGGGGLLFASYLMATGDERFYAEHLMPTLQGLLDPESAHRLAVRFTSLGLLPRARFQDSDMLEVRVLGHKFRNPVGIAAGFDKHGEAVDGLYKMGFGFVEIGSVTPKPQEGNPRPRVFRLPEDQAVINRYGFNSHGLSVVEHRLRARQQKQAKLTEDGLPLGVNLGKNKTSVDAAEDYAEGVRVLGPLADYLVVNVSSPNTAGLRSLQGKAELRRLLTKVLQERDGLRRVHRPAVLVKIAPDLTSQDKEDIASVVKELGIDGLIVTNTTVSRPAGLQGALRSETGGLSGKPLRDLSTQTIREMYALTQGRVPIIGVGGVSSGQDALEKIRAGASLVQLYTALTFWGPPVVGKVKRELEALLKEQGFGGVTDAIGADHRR
pIC50: −log10 of the molar value.
Parameter: pIC50

C/C(O)=C(\C#N)C(=O)Nc1cc(O[C@@H](C)C(F)(F)F)c(C(=O)c2cccc(Cl)c2)cc1F
7.26

(1) CCC(C)Oc1cc(NC(=O)/C(C#N)=C(/C)O)c(F)cc1C(=O)c1ccccc1 (stereo unspecified)
(2) COc1cccc(C(=O)c2cc(F)c(NC(=O)/C(C#N)=C(/C)O)cc2O[C@@H](C)C(F)(F)F)c1
(3) O=C(c1ccccc1)c1ccc(Nc2ncccc2C(=O)O)cc1
Ask: Parameters: sort_field (pIC50), sort_dir (desc). # answer = labels listed in requested order
Reply: 1, 2, 3

(1) C/C(O)=C(\C#N)C(=O)Nc1cc(OC(C)C)c(C(=O)c2ccccc2)cc1F
(2) C/C(O)=C(\C#N)C(=O)Nc1cc(O[C@@H](C)C(F)(F)F)c(C(=O)c2cccc(F)c2)cc1F
Ask: // compare measured pIC50, left 1 , right 2 , return larger Use the label to indicate which entry you chose.
Reply: 1
(1: 7.43, 2: 7.20)

(1) C/C(O)=C(\C#N)C(=O)Nc1cc(O[C@@H](C)C(F)(F)F)c(C(=O)c2ccccc2F)cc1F
(2) O=C(c1ccccc1)c1ccc(Nc2ncccc2C(=O)O)c(Cl)c1
Ask: Select the item whose pIC50 value is smaller, choosing between 1 and 2 . Your answer should be the label attached to the chosen record.
Reply: 2
(2: 7.20, 1: 7.62)

(I) C/C(O)=C(\C#N)C(=O)Nc1cc(O[C@@H](C)C(F)(F)F)c(C(=O)c2ccc(Cl)cc2)cc1F
(II) O=C(c1ccccc1)c1cc(F)c(Nc2ncccc2C(=O)O)c(F)c1
Ask: Would you let me know which has the greater pIC50 value, I or II ? Please respond with the label that marks your chosen entry.
Reply: II

All values here come from ChEMBL document CHEMBL5352423.
